Catalogue of Vd values
Experiment: Volume of distribution at steady state in Sprague-Dawley rat at 1 mg/kg, iv
Assay type: ADME, organism-based
Design: dose 1 mg/kg, route intravenous
Details: in vivo, read-out: Vdss
Parameter measured: Vd (L/kg)

Compound	Parameter measured	Observed value
COC(=O)N[C@H](C(=O)N1CCC[C@H]1c1ncc(-c2ccc(C34CCC(c5cnc([C@@H]6CCCN6C(=O)[C@@H](NC(=O)OC)C(C)C)[nH]5)(CC3)CC4)cc2)[nH]1)C(C)C	Vd	1.31
COC(=O)N[C@H](C(=O)N1CCC[C@H]1c1ncc(-c2ccc([C@H]3CC[C@H](c4cnc([C@@H]5CCCN5C(=O)[C@@H](NC(=O)OC)C(C)C)[nH]4)CC3)cc2)[nH]1)C(C)C	Vd	1.53

###

Assay: AUClast in Sprague-Dawley rat at 2 mg/kg, iv
Format: ADME, organism-based
Set-up: time 0 - last, dose 2 mg/kg, route intravenous
Conditions: plasma

Compound	AUC(0-t)
COC(=O)N[C@@H](C(=O)N1CCC[C@H]1c1ncc(-c2ccc(N3CCC(c4cnc([C@@H]5CCCN5C(=O)[C@H](NC(=O)OC)c5ccccc5)[nH]4)CC3)c(F)c2)[nH]1)c1ccccc1	2060 ng·h/mL

###

Test: Solubility of the compound at pH 7.4 by UV detection method
Format: physicochemical
Details: buffer
Catalogue of solubility values

Compound	solubility / mg/mL
COC(=O)N[C@H](C(=O)N1CCC[C@H]1c1ncc(-c2ccc(-c3ccc(-c4cnc([C@@H]5CCCN5C(=O)[C@@H](NC(=O)OC)C(C)C)[nH]4)cc3)cc2)[nH]1)C(C)C [DACLATASVIR]	0.0068
COC(=O)N[C@H](C(=O)N1CCC[C@H]1c1ncc(-c2ccc(C34CCC(c5cnc([C@@H]6CCCN6C(=O)[C@@H](NC(=O)OC)C(C)C)[nH]5)(CC3)CC4)cc2)[nH]1)C(C)C	0.045
COC(=O)N[C@H](C(=O)N1CCC[C@H]1c1ncc(-c2ccc([C@H]3CC[C@H](c4cnc([C@@H]5CCCN5C(=O)[C@@H](NC(=O)OC)C(C)C)[nH]4)CC3)cc2)[nH]1)C(C)C	0.0663
COC(=O)N[C@H](C(=O)N1CCC[C@H]1c1ncc(-c2cc(F)c(N3CCC(c4cnc([C@@H]5CCCN5C(=O)[C@@H](NC(=O)OC)C(C)C)[nH]4)CC3)c(F)c2)[nH]1)C(C)C	0.0875

###

Catalogue of EC50 values
Assay: Inhibition of NS5A in HCV genotype-1a infected in human HuH7 cells by luciferase reporter gene assay
Format: cell-based, Hepatitis C virus subtype 1a
Details: Hepatitis C virus, Huh-7
Parameter measured: EC50 (nM)

Compound	Parameter measured	Inequality sign	Observed value
COC(=O)N[C@H](C(=O)N1CCC[C@H]1c1ncc(-c2ccc([C@H]3CC[C@H](c4cnc([C@@H]5CCCN5C(=O)[C@H](C(C)C)N(C)C)[nH]4)CC3)cc2)[nH]1)C(C)C	EC50	>	100
COC(=O)N[C@H](C(=O)N1CCC[C@H]1c1ncc(-c2ccc([C@H]3CC[C@H](c4cnc([C@@H]5CCCN5C(=O)[C@@H](NC(=O)OC)[C@@H](C)OC)[nH]4)CC3)cc2)[nH]1)[C@@H](C)OC	EC50	=	1.4
COC(=O)N[C@H](C(=O)N[C@@H](C)c1ncc(C2CCN(c3c(F)cc(-c4cnc([C@@H]5CCCN5C(=O)[C@@H](NC(=O)OC)C(C)C)[nH]4)cc3F)CC2)[nH]1)C(C)C	EC50	=	68
COC(=O)N[C@H](C(=O)N1CCC[C@H]1c1ncc(-c2ccc([C@H]3CC[C@](C)(c4cnc([C@@H]5CCCN5C(=O)[C@@H](NC(=O)OC)C(C)C)[nH]4)CC3)cc2)[nH]1)C(C)C	EC50	>	100
COC(=O)N[C@H](C(=O)N1CCC[C@H]1c1ncc(-c2ccc([C@H]3CC[C@H](c4cnc([C@@H]5CCCN5C(=O)[C@@H](NC(=O)OC)C5CC5)[nH]4)CC3)cc2)[nH]1)C1CC1	EC50	=	4.5
